# system under test: binding partner of C5A (XPA23)
# assay method text: Biacore K-off
property label: fold difference in affinity vs original (fold)
Response body: numeric value in fold, unit text excluded.

So what's the measured fold difference in affinity vs original for this one? C5A (XPA23) VL F94V (antibody, V domains shown) VH: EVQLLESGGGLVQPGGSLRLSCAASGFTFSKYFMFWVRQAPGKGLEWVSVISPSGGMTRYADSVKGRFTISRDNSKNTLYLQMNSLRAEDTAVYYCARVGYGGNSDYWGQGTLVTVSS VL: DIQMTQSPSSVSASVGDRLTIICRASQDINRWLAWYQQTPGNAPKLLIHSATSLQSGVPSRFSGSGSGTDFTLTINSLQPEDFATYYCQQADSVPLTFGGGTKVEIK 0.2

Then what about the binder C5A (XPA23) VL D92I (antibody, V domains shown) VH: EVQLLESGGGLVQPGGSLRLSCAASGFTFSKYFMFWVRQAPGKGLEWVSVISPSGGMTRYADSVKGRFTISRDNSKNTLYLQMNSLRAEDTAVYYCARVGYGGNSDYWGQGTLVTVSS VL: DIQMTQSPSSVSASVGDRLTIICRASQDINRWLAWYQQTPGNAPKLLIHSATSLQSGVPSRFSGSGSGTDFTLTINSLQPEDFATYYCQQAISFPLTFGGGTKVEIK ? 0.33

Another binder: C5A (XPA23) VH F33S (antibody, V domains shown) VH: EVQLLESGGGLVQPGGSLRLSCAASGFTFSKYSMFWVRQAPGKGLEWVSVISPSGGMTRYADSVKGRFTISRDNSKNTLYLQMNSLRAEDTAVYYCARVGYGGNSDYWGQGTLVTVSS VL: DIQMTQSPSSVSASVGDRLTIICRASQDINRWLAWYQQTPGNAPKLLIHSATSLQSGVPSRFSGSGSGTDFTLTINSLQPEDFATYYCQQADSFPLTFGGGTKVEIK 0.73

# iterate: C5A (XPA23) VL A51G (antibody, V domains shown) VH: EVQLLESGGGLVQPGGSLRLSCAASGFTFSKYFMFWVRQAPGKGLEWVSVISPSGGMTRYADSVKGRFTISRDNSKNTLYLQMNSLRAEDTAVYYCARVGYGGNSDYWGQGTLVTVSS VL: DIQMTQSPSSVSASVGDRLTIICRASQDINRWLAWYQQTPGNAPKLLIHSGTSLQSGVPSRFSGSGSGTDFTLTINSLQPEDFATYYCQQADSFPLTFGGGTKVEIK 3.84

Next up: C5A (XPA23) VL S50A (antibody, V domains shown) VH: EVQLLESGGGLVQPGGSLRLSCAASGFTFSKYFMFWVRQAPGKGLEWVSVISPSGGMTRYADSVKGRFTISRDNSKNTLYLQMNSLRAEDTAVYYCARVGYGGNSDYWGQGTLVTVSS VL: DIQMTQSPSSVSASVGDRLTIICRASQDINRWLAWYQQTPGNAPKLLIHAATSLQSGVPSRFSGSGSGTDFTLTINSLQPEDFATYYCQQADSFPLTFGGGTKVEIK 0.13
